Target: T1, human claudin 18 splice variant 2 (CLDN18.2) (human)
T1 construct: also called claudin 18 isotype 2
Assay: flow cytometry, HEK293 cells stably expressing CLDN18.2; APC-conjugated secondary antibody; binding assay 3
Exercise: for every item that follows, state its recorded Max. binding [MFI].
// return numeric value only (unit: MFI, not printed)

input: Read the entry mu mAB62 (antibody, mouse IgG2a, V domains shown, mouse IgG2a kappa) VH: QVQLQQSGAELMKPGASVKISCKATGYTFSSYWIEWVKQRPGHGLEWIGEILPGSGSTNYNEKFKGKATFTADTSSNTAYMQLSSLTSEDSAVYYCARYDYPWFAYWGQGTLVTVSA VL: QIVLTQSPAIMSASPGEKVTITCSASSSVSYMHWFQQKPGTSPKLWIYSTSNLASGVPARFSGSGSGTSYSLTISRMEAEDAATYYCQQRSSYPPTFGGGTKLEIK and write its reported Max. binding [MFI].
output: 2800

input: Read the entry mu mAB362 (mouse IgG1) (antibody, V domains shown, also called mu muAB362 (IgG1)) VH: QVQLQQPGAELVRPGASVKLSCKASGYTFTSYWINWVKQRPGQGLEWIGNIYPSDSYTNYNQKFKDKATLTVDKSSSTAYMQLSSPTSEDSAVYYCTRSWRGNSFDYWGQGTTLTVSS VL: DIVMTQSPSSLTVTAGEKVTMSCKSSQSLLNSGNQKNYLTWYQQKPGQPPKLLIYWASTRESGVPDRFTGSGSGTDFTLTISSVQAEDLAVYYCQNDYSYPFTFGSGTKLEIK and write its reported Max. binding [MFI].
output: 8830

input: Read the entry IMAB362 (antibody, V domains shown, Chimeric human IgG1 kappa; CDR1 at 45-52); also called chim mAb362; chim mAB362) VH: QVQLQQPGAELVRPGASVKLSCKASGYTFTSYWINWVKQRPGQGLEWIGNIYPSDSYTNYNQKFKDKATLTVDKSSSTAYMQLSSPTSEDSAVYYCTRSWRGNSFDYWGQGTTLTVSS VL: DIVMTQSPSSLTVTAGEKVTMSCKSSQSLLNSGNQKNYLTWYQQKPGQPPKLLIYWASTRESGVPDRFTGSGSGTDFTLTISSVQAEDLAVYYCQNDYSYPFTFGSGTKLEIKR and write its reported Max. binding [MFI].
output: 7950

input: Read the entry mu mAB279 (antibody, mouse IgG2a, V domains shown, mouse IgG2a kappa) VH: QVQLQQSGAELARPGASVKLSCKASGYTFTDYYINWVKQRTGQGLEWIGEIYPGSGNTYYNEKFKGKATLTADKSSSTAYMQLSSLTSEDSAVYFCARSYGAFDYWGQGTTLTVSS VL: DIVMTQSQKFMSTSVGDRVSITCKASQNVRTAVAWYQQKPGQSPKALIYLASNRHTGVPDRFTGSGSGTDFTLTISNVQSEDLADYFCLQHWNYPLTFGGGTKLEIK and write its reported Max. binding [MFI].
output: 118
